Kindly supply the reported activation values for the records listed here.
Target: 5-hydroxytryptamine receptor 5A (Homo sapiens) (UniProt P47898)
Sequence (P47898 whole entry, looked up): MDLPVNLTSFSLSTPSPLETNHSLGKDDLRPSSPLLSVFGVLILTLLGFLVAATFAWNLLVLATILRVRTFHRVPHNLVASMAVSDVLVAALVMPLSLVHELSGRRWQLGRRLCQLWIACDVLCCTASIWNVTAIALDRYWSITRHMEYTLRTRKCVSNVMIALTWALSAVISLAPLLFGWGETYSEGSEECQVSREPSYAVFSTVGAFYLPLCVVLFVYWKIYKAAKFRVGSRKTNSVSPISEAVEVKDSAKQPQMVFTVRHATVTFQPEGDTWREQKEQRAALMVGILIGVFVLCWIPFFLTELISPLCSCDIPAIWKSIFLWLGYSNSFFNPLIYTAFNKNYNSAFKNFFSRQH
Assay: activation of human 5-HT5A receptor – cell-based, luminescence, full-deck HTS, counter-screen for OPRM1-OPRD1 heterodimer agonist project, primary screen (AID 504692);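 further: 0% = cells with vehicle only and 100% = reference agonist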
Details: HTR5A agonist assay, at 9.3 µM, active compounds read high
The whole screen tested about 340,000 compounds, of which about 2,000 (0.59%) were called active. This is one part of a sample in which actives are shown more often than they occur.

As a guide, the following entries are already answered.
* N#Cc1c(C(F)(F)F)cc(-c2ccc(Cl)cc2)nc1SCC(=O)O | -1.06% (inactive)
* COc1cc2c(cc1NC(=O)COC(=O)/C=C/c1ccccc1)oc1ccccc12 | 1.5% (inactive)
* O=C(OCC(=O)N1CCCCCC1)c1cnc(Cl)c(Cl)c1 | -5.36% (inactive)
* CC(=O)c1c(C)[nH]c(C(=O)OCC(=O)Nc2c(C)cccc2C)c1C | 17.5% (active)
* CCN1CCN(C(=O)/C=C\C(=O)O)CC1 | 2.72% (inactive)

Proceed to the following item.
Prompt: Please report the recorded activation for CC(=O)c1c(C)[nH]c(C(=O)OCC(=O)Nc2c(C)n(C)n(-c3ccccc3)c2=O)c1C .
Completion: 1.57% (inactive)

###

Target: 5-hydroxytryptamine receptor 5A (Homo sapiens) (UniProt P47898)
Experiment: activation of human 5-HT5A receptor – cell-based, luminescence, full-deck HTS, counter-screen for OPRM1-OPRD1 heterodimer agonist project, primary screen (AID 504692);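 further: 0% = cells with vehicle only and 100% = reference agonist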
Conditions: HTR5A agonist assay, at 9.3 µM
In all, about 340,000 compounds went through this assay and about 2,000 (0.59%) were called active. No stated cut-off is given here; in the data, active means activation mostly above about 9.5% (no sharp cut-off); inactive means mostly below about 7.6%. The list comes from a sample in which actives are over-represented; it also holds close analogues and randomly drawn compounds.
Write down the outcome that applies. Available outcomes: active, inactive

• O=C(CSc1ccccc1)Nc1cccc(S(=O)(=O)N2CCCCC2)c1 = inactive
• CCN(CC)S(=O)(=O)c1cccc(NC(=O)c2ccc(S(=O)(=O)N3CCCC3)cc2)c1 = active

Prompt: # lookup: test call for COc1cccc(OC)c1C(=O)N1CCN(Cc2cccnc2)CC1
Completion: inactive

###

Target: 5-hydroxytryptamine receptor 5A (Homo sapiens) (UniProt P47898)
Experiment: activation of human 5-HT5A receptor – cell-based, luminescence, full-deck HTS, counter-screen for OPRM1-OPRD1 heterodimer agonist project, primary screen (AID 504692);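 further: 0% = cells with vehicle only and 100% = reference agonist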
Details: HTR5A agonist assay, at 9.3 µM
Screen size: about 340,000 compounds; about 2,000 (0.59%) were called active. No stated cut-off is given here; in the data, active means activation mostly above about 9.5% (no sharp cut-off); inactive means mostly below about 7.6%. Many of the other results were omitted from the sample, so actives are more common in it than they were.
Write down the outcome that applies. Available outcomes: yes (1) for active, no (0) for inactive

These solved cases illustrate the format of a correct answer.
• O=C(NC1CCCC1)c1cc(-c2ccccc2)on1 = no (0)
• CCOC(=O)C1CCCN(S(=O)(=O)c2ccc(-n3cnnn3)c(C)c2)C1 (stereo not given) = no (0)
• CCCCOC(=O)NCN1C(=O)C2C3C=CC(C3)C2C1=O (stereo not given) = yes (1)
• CNC(=O)c1c(NC(NC(=O)c2ccco2)C(=O)c2ccc(Cl)cc2)sc2c1CCCC2 (stereo not given) = no (0)

Prompt: # lookup: test call for O=C(CN(C(=O)c1csnn1)c1cccc(F)c1)NCc1ccc(F)cc1
Completion: no (0)

###

Molecular target: 5-hydroxytryptamine receptor 5A (Homo sapiens)
Test: activation of human 5-HT5A receptor – cell-based, luminescence, full-deck HTS, counter-screen for OPRM1-OPRD1 heterodimer agonist project, primary screen (AID 504692);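 further: 0% = cells with vehicle only and 100% = reference agonist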
Conditions: HTR5A agonist assay, at 9.3 µM, active compounds read high
Screen size: about 340,000 compounds; about 2,000 (0.59%) were called active. Many of the other results were omitted from the sample, so actives are more common in it than they were.
Kindly supply the reported activation values for the records listed here.
One number for each entry, in %.

• CC1(C)C(C=C(Cl)Cl)C1C(=O)N(Cc1ccc(Cl)cc1)C1CCS(=O)(=O)C1 (stereo not given) = 0.53
• CN(C)CCCNC(=S)N1CCC(c2nc3ccccc3[nH]2)CC1 = 11.5

State recorded activation for all listed molecules.
1. CCSc1nnc(-c2cc3c(s2)-c2ccccc2CC3)o1
2. Cc1onc(C(=O)Nc2ccc3c(c2)OCO3)c1[N+](=O)[O-]

Completion:
[-1.94, 14.2]

State recorded activation for all listed molecules.
1. CC(=O)N1CCN(S(=O)(=O)c2c(F)cc(F)c(Cl)c2F)CC1
2. O=C(c1cnc(Cl)c(Cl)c1)N1CCN(S(=O)(=O)c2ccc(F)cc2)CC1
3. N#CCCN(C(=O)COC(=O)c1ccc(S(=O)(=O)N2CCCCCC2)cc1)c1ccccc1
4. Fc1ccccc1OCCSc1nc2ccccc2o1
5. COc1ccc(/C=C(\NC(=O)c2ccc(OCC(C)C)cc2)C(=O)OCc2ccco2)cc1
6. CCC(C)NC(=O)CCCc1ccccc1 (stereo not given)

Completion:
[11.6, -1.02, -3.52, 4.15, -0.73, 14.8]

State recorded activation for all listed molecules.
1. Cc1nn(CC(=O)Nc2ccc3c(c2)OCO3)c(C)c1[N+](=O)[O-]
2. COc1ccc(-n2nc3c(N4CCC(C(=O)NCc5ccccc5)CC4)nnc(C)c3c2C)cc1
3. O=C1CC(Cc2ccc(Cl)cc2)C(=O)N1c1cc(Cl)ccn1 (stereo not given)
4. CC(C)OC(=O)c1sc2nc3c(cc2c1N)C(=O)CCC3
5. O=C(COC(=O)/C=C/c1ccc(S(=O)(=O)N2CCCCCC2)cc1)NCc1ccccc1Cl
6. CCN1CCN(C(=O)C2CCN(S(=O)(=O)c3cc(Cl)ccc3Cl)CC2)CC1

Completion:
1. 6.4
2. -1.31
3. 5.44
4. 5.9
5. -5.05
6. 1.91

###

Biological target: 5-hydroxytryptamine receptor 5A (Homo sapiens) (UniProt P47898)
Assay: activation of human 5-HT5A receptor – cell-based, luminescence, full-deck HTS, counter-screen for OPRM1-OPRD1 heterodimer agonist project, primary screen (AID 504692);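 further: 0% = cells with vehicle only and 100% = reference agonist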
Settings: HTR5A agonist assay, at 9.3 µM, active compounds read high
The campaign covered roughly 340,000 compounds. About 2,000 (0.59%) were called active. The sample holds actives, similar compounds and a random draw of the others, so the mix is not that of the screen.
reported.metric: activation (%)
Answers are plain numbers, in %.

As a guide, the following entries are already answered.
• Cc1noc(C)c1S(=O)(=O)Nc1cc(C(F)(F)F)ccc1N1CCOCC1 = -0.69
• CCOc1ccc(CCNC(=O)C(CC)n2nc(C)n3c(cc4sccc43)c2=O)cc1OCC (centres undefined) = 8.13
• O=C(Cn1nnc(-c2ccccc2)n1)N/N=C/c1ccc(-c2ccc(Cl)cc2)o1 = 1.41
• COc1ccc2c(c1)SC(C)CC2=O (centres undefined) = 10.6
• Cc1ccc(C(=O)Nc2nc3ccc(Cl)cc3s2)o1 = 5.48

State recorded activation for all listed compounds.
1. O=C(CCc1c[nH]c2ccccc12)NCCOc1ccccc1
2. CN(CC(=O)NCc1ccc(Cl)cc1)S(=O)(=O)c1cccs1
3. CCOC(=O)C1C(c2ccc(O)cc2)NC(=O)NC1(O)C(F)(F)F (centres undefined)

Completion:
1. 0.78
2. 1.02
3. 3.08

###

Molecular target: 5-hydroxytryptamine receptor 5A (Homo sapiens) (UniProt P47898)
Assay: activation of human 5-HT5A receptor – cell-based, luminescence, full-deck HTS, counter-screen for OPRM1-OPRD1 heterodimer agonist project, primary screen (AID 504692);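 further: 0% = cells with vehicle only and 100% = reference agonist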
Details: HTR5A agonist assay, at 9.3 µM, active compounds read high
The campaign covered roughly 340,000 compounds. About 2,000 (0.59%) were called active. The sample holds actives, similar compounds and a random draw of the others, so the mix is not that of the screen.
Kindly supply the reported activation values for the records listed here.

As a guide, the following entries are already answered.
- CCCOc1ccc(C(=O)C(CCC(CNCC)C(=O)c2ccc(OCCC)cc2)CNCC)cc1 (configuration not stated): 19.9% (active)
- CC(C)(C)C(=O)NC(NC(=S)Nc1ccc(S(N)(=O)=O)cc1)C(Cl)(Cl)Cl (configuration not stated): 3.71% (inactive)
- CCOc1ccc(S(=O)(=O)NCCCn2ccnc2)cc1NC(C)=O: 2.78% (inactive)

State recorded activation for all listed compounds.
1. O=C(CSc1nncs1)NC1CCCc2ccccc21 (configuration not stated)
2. CCOc1ccc(CN2CCN(Cc3ccc(C)o3)CC2CCO)cc1 (configuration not stated)
3. CC(=O)c1cccc(OCc2cc(C(=O)NC(C)Cc3cccnc3)no2)c1 (configuration not stated)

Completion:
-2.59% (inactive)
-1.69% (inactive)
2.99% (inactive)

###

Target: 5-hydroxytryptamine receptor 5A (Homo sapiens) (UniProt P47898)
Assay: activation of human 5-HT5A receptor – cell-based, luminescence, full-deck HTS, counter-screen for OPRM1-OPRD1 heterodimer agonist project, primary screen (AID 504692);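 further: 0% = cells with vehicle only and 100% = reference agonist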
Settings: HTR5A agonist assay, at 9.3 µM, active compounds read high
Screen size: about 340,000 compounds; about 2,000 (0.59%) were called active. Only a selection was taken, and actives are over-represented in it overall.
reported.metric: activation (%)
Numbers only, in %.

As a guide, the following entries are already answered.
- O=C(NC(Cc1c[nH]c2ccccc12)C(=O)O)/C(=C/c1ccco1)NC(=O)c1ccccc1 (stereo unspecified): 0.55
- Cc1ccc(C(=O)N/C(=C\c2ccco2)C(=O)N2CCSCC2)cc1C: 1.54
- O=C(NCCS(=O)(=O)NCc1ccc(F)cc1)c1ccccc1: -3.96
- Fc1ccccc1-c1cc2cc3c(cc2cn1)OCO3: 7.94
- COc1ccccc1N(C)S(=O)(=O)c1ccc(C(=O)NC2CCCCCC2)cc1: 2.54

Proceed to the following item.
Prompt: Please report the recorded activation for COc1ccc(C(=O)NC(C)c2nccs2)cc1OC1CCN(C(C)C)CC1 (stereo unspecified) .
Completion: 0.03
